The values you see were collected from paper PMC9926234.

biological target: SARS-CoV-2 NSP3 Mac1 (Severe acute respiratory syndrome coronavirus 2, UniProt P0DTD1); assay type: binding; conditions: crystal soak, compound concentration 100 mM; per dataset
measurement_name: PanDDA hit?

compound | measurement_name | result
CNS(=O)(=O)c1cc(C(=O)N2CCc3nc(N)ncc3C2)co1 [FRESH00014649046] | PanDDA hit? | TRUE
CNC(=O)Nc1ccc(C(=O)NC2c3ccccc3CC2C(=O)O)cc1 (stereo not drawn) [Z8515] | PanDDA hit? | TRUE
O=C(Nc1ccc(C(=O)N[C@H]2c3ccccc3CC[C@H]2C(=O)O)cc1)NC1CC1 [8539_0030] | PanDDA hit? | TRUE
